TARGET_ENTITY: T1, Y160W mutant/Pi complex (Escherichia coli, UniProt P0ABP8, Y161W)
T1 construct: made in house; host or cells: E. coli DH5α-T1
ASSAY_DETAILS: Calorimetric (ITC) titrations with formycin A
Set-up: species or system E. coli
TEST_SETTINGS: Kd1 ± SD, three-binding-site model, 50 mM phosphate, pH 7.6, 25 °C
ENDPOINT_NAME: Kd
// unit must come after the numeric part

Checklist item: Kd tested on T1, Y160W mutant/Pi complex (Escherichia coli, UniProt P0ABP8, Y161W), entry Nc1ncnc2c([C@@H]3O[C@H](CO)[C@@H](O)[C@H]3O)[nH]nc12 , value?
6.75 µM

* * *

TARGET_ENTITY: Y160W PNP mutant (Escherichia coli, UniProt P0ABP8, Y161W)
Sequence (P0ABP8 2-239 Y161W): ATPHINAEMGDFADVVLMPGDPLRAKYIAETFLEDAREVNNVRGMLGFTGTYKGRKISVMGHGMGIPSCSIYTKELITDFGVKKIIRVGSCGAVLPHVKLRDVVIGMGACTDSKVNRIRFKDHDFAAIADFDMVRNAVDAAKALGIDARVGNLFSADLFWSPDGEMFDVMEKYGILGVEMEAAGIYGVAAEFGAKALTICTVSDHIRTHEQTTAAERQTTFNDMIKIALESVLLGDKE
ASSAY_DETAILS: Enzymatic specific activity, spectrophotometric assay
Assay type: biochemical, E. coli
Parameters: made in house; host or cells: E. coli DH5α-T1
TEST_SETTINGS: Y160W; pH 7.0, 50 mM Hepes, 25 °C, 50 mM phosphate
ENDPOINT_NAME: Enzymatic specific activity (U/mg)
Report the value in U/mg with no unit label.

As a guide, the following entries are already answered.
>  <COMPOUND>
C[n+]1cn([C@@H]2O[C@H](CO)[C@@H](O)[C@H]2O)c2nc(N)[nH]c(=O)c21 [m^7Guo, 7-Methylguanosine]

>  <TARGET_ENTITY>
Y160W PNP mutant (Escherichia coli, UniProt P0ABP8, Y161W)

>  <OUTPUT_UNIT>
U/mg

>  <Enzymatic specific activity>
23.2

$$$$
>  <COMPOUND>
O=c1[nH]cnc2c1ncn2[C@@H]1O[C@H](CO)[C@@H](O)[C@H]1O [Ino, Inosine]

>  <TARGET_ENTITY>
Y160W PNP mutant (Escherichia coli, UniProt P0ABP8, Y161W)

>  <OUTPUT_UNIT>
U/mg

>  <Enzymatic specific activity>
91.1

$$$$
>  <COMPOUND>
Nc1ncnc2c1ncn2[C@@H]1O[C@H](CO)[C@@H](O)[C@H]1O [Ado, Adenosine]

>  <TARGET_ENTITY>
Y160W PNP mutant (Escherichia coli, UniProt P0ABP8, Y161W)

>  <OUTPUT_UNIT>
U/mg

>  <Enzymatic specific activity>
65.6

$$$$

# input for lookup
Name the recorded Enzymatic specific activity for Nc1nc2c(ncn2[C@@H]2O[C@H](CO)[C@@H](O)[C@H]2O)c(=O)[nH]1 [Guo, Guanosine] .
36.2

* * *

TARGET_ENTITY: WT PNP/Pi complex (Escherichia coli, UniProt P0ABP8)
Construct: made in house
ASSAY_DETAILS: Calorimetric (ITC) titrations with formycin A
Design: species or system E. coli
TEST_SETTINGS: Kd3 ± SD, three-binding-site model, 50 mM phosphate, pH 7.6, 25 °C, values to be treated as estimates
ENDPOINT_NAME: pKd
Please keep in mind that pKd is minus log10 of the molar concentration; only the number is needed.

Checklist item: pKd tested on WT PNP/Pi complex (Escherichia coli, UniProt P0ABP8), entry Nc1ncnc2c([C@@H]3O[C@H](CO)[C@@H](O)[C@H]3O)[nH]nc12 , value?
3.09

* * *

TARGET_ENTITY: Y160W PNP mutant (Escherichia coli, UniProt P0ABP8, Y161W)
ASSAY_DETAILS: Near-UV CD titrations
Format: binding, E. coli
Parameters: made in house; host or cells: E. coli DH5α-T1
TEST_SETTINGS: CD titrations with phosphate, three-binding-site model, 25 °C, 50 mM Tris/HCl pH 7.6, read-out: Kd1 ± SD
ENDPOINT_NAME: Kd (µM)
Report the value in µM with no unit label.

Name the recorded Kd for O=P(O)(O)O [Pi, Orthophosphate] .
4.13

The origin of these recorded values is paper PMC8160210.
